# Test system: H9 (acute lymphoblastic leukemia, ALL)
# MEASUREMENT NOTES: Leukemia cell growth inhibition, MTT, 72 h (Example 5)
# Assay type: cell-based, human
# EXPERIMENTAL PARAMETERS: Homo sapiens; 72 h, MTT
Reported IC90 values for the following compounds.

COMPOUND: COCCCOCc1c2c3c(c(OC)c1OC)Oc1cc4c(cc1OC)CCN(C)[C@H]4Cc1ccc(cc1)Oc1cc(ccc1OC)C[C@@H]3N(C)CC2 [BS-TE-416]
TARGET OR TEST SYSTEM: H9 (acute lymphoblastic leukemia, ALL)
IC90: 4.4 µg/mL
//
COMPOUND: COc1ccc2cc1Oc1ccc(cc1)C[C@H]1c3cc(c(OC)cc3CCN1C)Oc1c(OC)c(OC)c(COCC3CCOC3)c3c1[C@H](C2)N(C)CC3 (stereo partly drawn) [BS-TE-417]
TARGET OR TEST SYSTEM: H9 (acute lymphoblastic leukemia, ALL)
IC90: 4.37 µg/mL

Next up:
Query block: I am curious: what IC90 value has been reported for COc1ccc2cc1Oc1ccc(cc1)C[C@H]1c3cc(c(OC)cc3CCN1C)Oc1c(OC)c(OC)c(CNc3nccs3)c3c1[C@H](C2)N(C)CC3 [BS-TE-320] ?
Result block: 3.36 µg/mL

----------
# System: A549 (human lung cancer)
# MEASUREMENT NOTES: Solid tumor cell growth inhibition, MTT, 72 h (Example 7)
# Assay type: cell-based
# EXPERIMENTAL PARAMETERS: Homo sapiens; 72 h, MTT, A549
READOUT TYPE: IC90 (mg/L)
Give just the numeric value; mg/L need not be written.

Query block: # query: IC90 of entry COc1ccc2cc1Oc1ccc(cc1)C[C@H]1c3cc(c(OC)cc3CCN1C)Oc1c(OC)c(OC)c(CN3CCCC3)c3c1[C@H](C2)N(C)CC3
Result block: 5.25

----------
Recorded IC50, one value per entry.
# Test system: CaES-17 (esophageal cancer cell)
# MEASUREMENT NOTES: Solid tumor cell growth inhibition, MTT, 72 h (Example 7)
# Type: cell-based, human
# EXPERIMENTAL PARAMETERS: Homo sapiens, CaEs17; 72 h, MTT, CAES-17
The number alone won't do; follow it with the unit.

MOLECULE: COc1ccc2cc1Oc1ccc(cc1)C[C@H]1c3cc(c(OC)cc3CCN1C)Oc1c(OC)c(OC)c(CNCc3ccccn3)c3c1[C@H](C2)N(C)CC3 [BS-TE-352]
IC50: 3.06 µg/mL

MOLECULE: COc1ccc2cc1Oc1ccc(cc1)C[C@H]1c3cc(c(OC)cc3CCN1C)Oc1c(OC)c(OC)c(CN3CCC(C#N)CC3)c3c1[C@H](C2)N(C)CC3 [BS-TE-323]
IC50: 3.6 µg/mL

From here, focus on the item given below.
Query block: Need IC50, item COc1ccc2cc1Oc1ccc(cc1)C[C@H]1c3cc(c(OC)cc3CCN1C)Oc1c(OC)c(OC)c(CN3CCCC(O)C3)c3c1[C@H](C2)N(C)CC3 (stereo partly drawn) [BS-TE-321]
Result block: 2.25 µg/mL

----------
# Test system: A549 (human lung cancer)
# MEASUREMENT NOTES: Solid tumor cell growth inhibition, MTT, 72 h (Example 7)
# Format: cell-based
# EXPERIMENTAL PARAMETERS: Homo sapiens; 72 h, MTT, A549
READOUT TYPE: IC50 (µg/mL)
Entry rule: numbers only, all in µg/mL.

Below, each entry is followed by its recorded IC50 result.
SMILES ENTRY: COCc1c2c3c(c(OC)c1OC)Oc1cc4c(cc1OC)CCN(C)[C@H]4Cc1ccc(cc1)Oc1cc(ccc1OC)C[C@@H]3N(C)CC2
UNIT STRING: µg/mL
VALUE REPORTED: 4.41
--
SMILES ENTRY: COc1ccc2cc1Oc1ccc(cc1)C[C@H]1c3cc(c(OC)cc3CCN1C)Oc1c(OC)c(OC)c(CN3CCSCC3)c3c1[C@H](C2)N(C)CC3
UNIT STRING: µg/mL
VALUE REPORTED: 3.7

With those in mind, consider the next molecule.
Query block: Request: IC50, test system A549 (human lung cancer), entry COc1ccc2cc1Oc1ccc(cc1)C[C@H]1c3cc(c(OC)cc3CCN1C)Oc1c(OC)c(OC)c(CN(C)[C@@H](C)c3ccccc3)c3c1[C@H](C2)N(C)CC3
Result block: 2.2
